Experimental Target: MMP-14 (Homo sapiens, UniProt P50281)
Method: Selection and phage ELISA screening of anti-MMP-14 Fabs
Assay type: binding
Protocol Conditions: Fab from FAB310 phage display library
Assay Readout: bind to human MMP-14

Molecule	Assay Readout	Val
M0043-F01: Fab that binds human MMP-14; DNA LV SEQ ID NO: 130, HV SEQ ID NO: 131 (antibody, V domains shown, Synthetically generated oligonucleotide) VL: QSALTQPASVSGSPGQSITISCTGTSSDIGAYRYVSWYQQRPGKAPKLMIFDVTKRPSGVSNRFSGFKSGNTASLTISGLQAEDEADYYCSSFTSGSTFVFGTGTKVTVL VH: EVQLLESGGGLVQPGGSLRLSCAASGFTFSKYSMYWVRQAPGKGLEWVSSISSSGGYTAYADSVKGRFTISRDNSKNTLYLQMNSLRAEDTAVYYCAIPWGSGSSWGQGTLVTVSS	bind to human MMP-14	bind to human MMP-14
M0032-B09: Fab that binds human MMP-14; DNA LV SEQ ID NO: 22, HV SEQ ID NO: 23 (antibody, V domains shown, Synthetically generated oligonucleotide) VH: EVQLLESGGGLVQPGGSLRLSCAASGFTFSIYKMVWVRQAPGKGLEWVSSIGSSGGHTRYADSVKGRFTISRDNSKNTLYLQMNSLRAEDTAVYYCARAPYYYYMDVWGKGTTVTVSS VL: QDIQMTQSPSSVSASVGDTVTITCRASQGISTWLAWYQHKPGKAPKLLIYAGPSLQSGVPSRFSGSGSGTEFTLTISSLHPEDFATYYCQQLNHYPMTFGQGTRLEIK	bind to human MMP-14	bind to human MMP-14
